# study target: TLR7/NFKb HEK cells (Homo sapiens, UniProt Q9NYK1)
# procedure details: HEK Cell Assay (TLR7/NFKb reporter, Steady-Glo luciferase readout)
# condition info: 30 min compound preincubation, then R*48 agonist for 5 hours, read-out: Potency
Each item that follows carries a reported IC50.

Consider the following illustrative entries.
compound | study target | recorded measurement
CNC(=O)CCC(=O)N[C@@H]1C[C@H](C)CN(c2cnc(C)c3ncccc23)C1 [Compound 565] | TLR7/NFKb HEK cells (Homo sapiens, UniProt Q9NYK1) | 1 to 10 µM
CN(C)CC(=O)N[C@H]1CN(c2ccc(C#N)c3nccnc23)CC(C)(C)C1 [Compound 217] | TLR7/NFKb HEK cells (Homo sapiens, UniProt Q9NYK1) | < 1 µM

Measured IC50 for this entry C[C@H]1C[C@@H](NC(=O)CN2CCOCC2)CN(c2ccc(F)c3ncccc23)C1 [Compound 470] on TLR7/NFKb HEK cells (Homo sapiens, UniProt Q9NYK1): 1 to 10 µM

So the reported IC50 for CCN(C)[C@H](C)C(=O)N[C@@H]1C[C@H](C)CN(c2ccnc3nccnc23)C1 [Compound 100] , on TLR7/NFKb HEK cells (Homo sapiens, UniProt Q9NYK1), turned out to be 1 to 10 µM

---

# study target: TLR7/NFKb HEK cells (Homo sapiens, UniProt Q9NYK1)
# Sequence (Q9NYK1 27-1049): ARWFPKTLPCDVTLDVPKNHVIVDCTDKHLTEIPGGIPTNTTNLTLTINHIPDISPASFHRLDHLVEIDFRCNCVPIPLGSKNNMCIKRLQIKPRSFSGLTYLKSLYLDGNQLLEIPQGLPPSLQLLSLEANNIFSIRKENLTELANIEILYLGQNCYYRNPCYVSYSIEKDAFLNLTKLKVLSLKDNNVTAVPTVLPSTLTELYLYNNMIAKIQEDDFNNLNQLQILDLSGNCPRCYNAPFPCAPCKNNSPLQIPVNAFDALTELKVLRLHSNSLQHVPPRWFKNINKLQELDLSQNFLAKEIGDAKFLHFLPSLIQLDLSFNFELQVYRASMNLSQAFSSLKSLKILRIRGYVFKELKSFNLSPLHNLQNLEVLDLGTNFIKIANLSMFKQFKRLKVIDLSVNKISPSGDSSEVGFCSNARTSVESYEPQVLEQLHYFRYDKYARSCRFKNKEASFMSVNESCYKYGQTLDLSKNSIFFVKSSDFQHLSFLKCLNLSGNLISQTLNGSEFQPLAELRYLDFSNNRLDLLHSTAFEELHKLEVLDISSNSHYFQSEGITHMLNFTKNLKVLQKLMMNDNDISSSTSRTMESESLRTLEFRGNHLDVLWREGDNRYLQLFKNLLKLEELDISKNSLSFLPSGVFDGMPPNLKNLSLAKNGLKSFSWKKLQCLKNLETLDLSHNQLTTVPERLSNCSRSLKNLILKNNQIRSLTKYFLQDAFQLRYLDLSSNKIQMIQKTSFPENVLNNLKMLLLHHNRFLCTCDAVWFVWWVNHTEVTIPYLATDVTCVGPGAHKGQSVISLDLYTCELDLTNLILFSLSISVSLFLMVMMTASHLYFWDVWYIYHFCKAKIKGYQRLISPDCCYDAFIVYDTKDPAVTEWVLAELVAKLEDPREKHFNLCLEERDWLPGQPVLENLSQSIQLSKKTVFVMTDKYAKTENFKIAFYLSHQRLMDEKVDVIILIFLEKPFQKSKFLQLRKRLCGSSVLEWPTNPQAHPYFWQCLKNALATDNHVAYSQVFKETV
# procedure details: HEK Cell Assay (TLR7/NFKb reporter, Steady-Glo luciferase readout)
# condition info: 30 min compound preincubation, then R*48 agonist for 5 hours, read-out: Potency
pIC50: −log10 of the molar value. Structures can show the parent of a compound that is named as a salt.
observation type: pIC50

compound | recorded measurement
N#Cc1ccc(N2CCC(C(=O)NCCN3CCCCC3)CC2)c2cccnc12 [Compound 403] | > 6.00
C[C@H]1C[C@@H](NC(=O)C(N)C(F)(F)F)CN(c2ccc(C(N)=O)c3ncccc23)C1 (single isomer, unassigned) [Compound 185] | < 5.00
C[C@H]1C[C@@H](N)CN(c2ncc(F)c3nccnc23)C1 [Compound 459, hydrochloride] | 5.00 to 6.00
C[C@H]1C[C@@H](NC(=O)CN2CCOCC2)CN(c2ccnc3nccnc23)C1 [Compound 110] | < 5.00
C[C@H]1C[C@@H](NC(=O)C(O)C2CC2)CN(c2ccc(C(F)(F)F)c3ncccc23)C1 (some centres unmarked) [Compound 515] | > 6.00
C[C@H]1C[C@@H](NC(=O)C2CC2(F)F)CN(c2ccc(C#N)c3nccnc23)C1 (some centres unmarked) [Compound 165] | > 6.00
C[C@H]1C[C@@H](N)CN(c2ccc(C(F)(F)F)c3nccnc23)C1 [Compound 77] | > 6.00

Now examine the next entry.
Reported pIC50 for CNCC(=O)N[C@@H]1C[C@H](C)CN(c2ccnc3nccnc23)C1 [Compound 29] was < 5.00

---

# study target: TLR7/NFKb HEK cells (Homo sapiens, UniProt Q9NYK1)
# procedure details: HEK Cell Assay (TLR7/NFKb reporter, Steady-Glo luciferase readout)
# condition info: 30 min compound preincubation, then R*48 agonist for 5 hours, read-out: Potency
observation type: IC50

Example results:
molecule | study target | observation type | recorded measurement
N#Cc1ccc(N2CCC(C(=O)NC3CCN(CC4CC4)C3)CC2)c2cccnc12 (stereo not shown) | TLR7/NFKb HEK cells (Homo sapiens, UniProt Q9NYK1) | IC50 | < 1 µM
OC1CCC(NC2CC(C(F)(F)F)CN(c3ccnc4nccnc34)C2)CC1 (single isomer, unassigned) [Compound 93] | TLR7/NFKb HEK cells (Homo sapiens, UniProt Q9NYK1) | IC50 | > 10 µM
O=C(CN1CCOCC1)N[C@H]1C[C@@H](C2CC2)CN(c2ccc(C(F)(F)F)c3ncccc23)C1 (relative stereo) | TLR7/NFKb HEK cells (Homo sapiens, UniProt Q9NYK1) | IC50 | > 10 µM

The record that follows has no IC50 shown yet.
What the record says about CC(C)(C)CC(=O)N[C@H]1C[C@@H](C(F)(F)F)CN(c2ccc(C#N)c3ncccc23)C1 (relative stereo) : IC50 is < 1 µM

---

# study target: TLR7/NFKb HEK cells (Homo sapiens)
# Sequence (Q9NYK1 27-1049): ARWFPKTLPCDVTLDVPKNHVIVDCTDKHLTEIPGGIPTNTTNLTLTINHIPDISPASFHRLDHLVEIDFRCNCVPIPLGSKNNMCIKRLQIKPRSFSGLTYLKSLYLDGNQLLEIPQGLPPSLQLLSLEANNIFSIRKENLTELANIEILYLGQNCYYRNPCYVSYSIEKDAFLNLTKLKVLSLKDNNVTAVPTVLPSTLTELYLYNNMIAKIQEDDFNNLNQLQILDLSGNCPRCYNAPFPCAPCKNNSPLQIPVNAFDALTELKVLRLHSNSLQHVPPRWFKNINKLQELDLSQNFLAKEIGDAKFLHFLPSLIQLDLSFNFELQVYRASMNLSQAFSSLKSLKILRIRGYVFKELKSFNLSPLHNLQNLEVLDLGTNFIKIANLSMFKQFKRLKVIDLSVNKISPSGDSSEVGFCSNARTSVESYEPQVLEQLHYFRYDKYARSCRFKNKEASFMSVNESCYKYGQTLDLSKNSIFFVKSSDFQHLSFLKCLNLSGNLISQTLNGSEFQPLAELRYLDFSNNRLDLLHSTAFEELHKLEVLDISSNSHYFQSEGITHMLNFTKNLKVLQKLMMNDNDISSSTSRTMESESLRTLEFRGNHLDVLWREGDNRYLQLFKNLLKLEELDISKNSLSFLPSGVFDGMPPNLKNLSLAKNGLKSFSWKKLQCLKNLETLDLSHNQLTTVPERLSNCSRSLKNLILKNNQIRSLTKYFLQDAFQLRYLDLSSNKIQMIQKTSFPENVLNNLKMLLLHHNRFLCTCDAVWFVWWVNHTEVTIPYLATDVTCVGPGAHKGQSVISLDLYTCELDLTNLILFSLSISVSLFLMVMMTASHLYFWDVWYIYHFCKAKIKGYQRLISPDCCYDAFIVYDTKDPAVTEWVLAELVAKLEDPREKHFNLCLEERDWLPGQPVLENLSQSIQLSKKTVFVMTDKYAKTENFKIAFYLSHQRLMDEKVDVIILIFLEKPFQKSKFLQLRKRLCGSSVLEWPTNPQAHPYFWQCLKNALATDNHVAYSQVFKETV
# procedure details: HEK Cell Assay (TLR7/NFKb reporter, Steady-Glo luciferase readout)
# condition info: 30 min compound preincubation, then R*48 agonist for 5 hours, read-out: Potency
pIC50: −log10 of the molar value. Where a name gives a salt, the structure may show the parent alone.
Listing: pIC50 of selected molecules

molecule | study target | pIC50
Cc1ncc(N2C[C@@H](C)C[C@@H](N)C2)c2cccnc12 | TLR7/NFKb HEK cells (Homo sapiens) | > 6.00
N#Cc1ccc(N2C[C@@H](N)C[C@@H](C(F)(F)F)C2)c2cccnc12 (relative stereo) | TLR7/NFKb HEK cells (Homo sapiens) | > 6.00
CCN(CC)CCNCC1CCN(c2ccnc3cc(C(F)(F)F)ccc23)CC1 | TLR7/NFKb HEK cells (Homo sapiens) | 5.00 to 6.00
C[C@@H]1C[C@H](C(=O)NCC2CCN(C)CC2)CN(c2ccc(C(F)(F)F)c3ncccc23)C1 (relative stereo) | TLR7/NFKb HEK cells (Homo sapiens) | > 6.00
CC(C(=O)N[C@@H]1C[C@H](C)CN(c2ccc(C(F)F)c3ncccc23)C1)N1CC(O)C1 (stereo partly shown) | TLR7/NFKb HEK cells (Homo sapiens) | > 6.00
CCN(CC)CC(=O)NCC1CCN(c2ccc(C(F)(F)F)c3ncccc23)CC1 | TLR7/NFKb HEK cells (Homo sapiens) | > 6.00

pIC50 for TLR7/NFKb HEK cells (Homo sapiens) with input "CCN(CC)CCNCC1CCN(c2ccnc3cc(F)ccc23)CC1" equals 5.00 to 6.00

TLR7/NFKb HEK cells (Homo sapiens) assay, molecule "C[C@H]1C[C@@H](NC(=O)CN2CCOCC2)CN(c2ccc(C#N)c3nccnc23)C1" , recorded pIC50 = > 6.00

Query C[C@H]1C[C@@H](NC(=O)C2(N)CC2)CN(c2ccc(C#N)c3nccnc23)C1 [Compound 31, hydrochloride] on TLR7/NFKb HEK cells (Homo sapiens); pIC50 returned: 5.00 to 6.00

Entry "C[C@H]1C[C@@H](NC(=O)CC(C)(C)CN)CN(c2ccc(C#N)c3nccnc23)C1" ; assay system TLR7/NFKb HEK cells (Homo sapiens); pIC50 recorded at > 6.00

Param item: "COCCN[C@@H]1C[C@H](C)CN(c2ccc(OC)c3nccnc23)C1" ; param system: TLR7/NFKb HEK cells (Homo sapiens); output pIC50: > 6.00

Tested on TLR7/NFKb HEK cells (Homo sapiens): "C[C@H]1C[C@@H](NC(=O)C2(CO)CC2)CN(c2ccc(C#N)c3nccnc23)C1" . Observed pIC50: 5.00 to 6.00

Entry N#Cc1ccc(N2CC(NC3CCC(O)CC3)CC(C(F)(F)F)C2)c2nccnc12 (single isomer, unassigned) [Compound 92] , tested on TLR7/NFKb HEK cells (Homo sapiens), has a reported pIC50 of 5.00 to 6.00
